test system: T1, T8 (Tn-MUC1) (PAPGST(α-GalNAc)APPAHGVTSAPDT(α-GalNAc)RPAPG-OH)
T1 peptide: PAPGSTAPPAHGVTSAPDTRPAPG
assay remarks: glycopeptide array
reported endpoint: EC50 (µg/mL)

>  <binder>
130 (antibody, V domains shown) VH: QVQLVQSGAEVKKPGASVRVSCKASGYTFINYYLQWVRQAPGQGLEWMGTINPFDGSTHYAQKFQGRVTLTRDTSTSTVYMELNSLRSDDTAVYYCARDYMIGYVLFDYWGQGTLVTVSS

>  <reported endpoint>
EC50

>  <unit label>
µg/mL

>  <reported result>
0.116

$$$$
>  <binder>
25 (antibody, V domains shown) VH: QVQLVESGAEVKKPGASVKVSCKASGYTFARYYVHWVRQAPGQGLEWMGLINPYGGATNYAQNFQGRVTMTRDTSTSTVYMELSSLRSEDTAVYYCARDAMGGDSYFDYWGQGTLVTVSS

>  <reported endpoint>
EC50

>  <unit label>
µg/mL

>  <reported result>
0.113

$$$$
>  <binder>
21 (antibody, V domains shown) VH: QVQLVQSGAEVRKPGASVKFSCKASGYSFTHYYVHWVRQAPGQGLEWMGVINPFDSSTNYARKFQGRVTMTRDTSTTTVYMDLSSLRSEDTAVYFCARDAMEGDSYFDYWGQGTLVTVSS

>  <reported endpoint>
EC50

>  <unit label>
µg/mL

>  <reported result>
0.061

$$$$
>  <binder>
190 (antibody, V domains shown) VH: QVQLVQSGAEVKKPGASVKVSCKASGYAFTNYYIHWVRQAPGHGLTWMGVINPFDSSTDFAQKFQGRLTMTRDTSTSTVYMDLSSLRSEDTAVYYCARDYMRGHVVFDNWGQGTLVTVSS

>  <reported endpoint>
EC50

>  <unit label>
µg/mL

>  <reported result>
0.108

$$$$
>  <binder>
166 (antibody, V domains shown) VH: QVQLVESGAEVKKPGASVKVSCKASGYTFNRYYIHWVRQAPGQGLEWMGVINPSDGSTNYAQKFRGRITMTRDTSTNIVYMELSSLRSEDTAVYFCARDAMGGDSYFDNWGQGTLVTVSS

>  <reported endpoint>
EC50

>  <unit label>
µg/mL

>  <reported result>
1.85

$$$$
>  <binder>
206 (antibody, V domains shown) VH: QVQLVQSGAEVKKPGASVRVSCKASGYPFINYYIQWVRQAPGQGLEWMGVINPFDGSTNYAQKFQGRVTVTRDTSTSTVFMDLNSLRSEDTAVYYCARDSMIGYVLFDFWGQGTLVTVSS

>  <reported endpoint>
EC50

>  <unit label>
µg/mL

>  <reported result>
0.084

$$$$
>  <binder>
150 (antibody, V domains shown) VH: QVQLVQSGAEVKTPGASVKVSCKASGYTFTNYYIQWVRQAPGQALEWMGVINPYDGSTHYAQKFQGRVTLTRDTSTTTVYMDLSSLRSEDAAVYYCARDYMLGYVVFDYWGQGTLVTVSS

>  <reported endpoint>
EC50

>  <unit label>
µg/mL

>  <reported result>
0.135

$$$$
>  <binder>
13 (antibody, V domains shown) VH: QVQLVQSGAEVKKPGASLKVSCKASGYTFTNYYIQWVRQAPGQGLEWMGVINPYDGSTNYAQKFQGRVTLTRDTSTTTVYMELSSLRSDDTAVYYCARDYMIGYVVFDYWGQGTLVTVSS

>  <reported endpoint>
EC50

>  <unit label>
µg/mL

>  <reported result>
0.145

$$$$
>  <binder>
134 (antibody, V domains shown) VH: QVQLVQSGAEVKKPGASVEVSCKASGYTFINYYIHWVRQAPGQGLEWMGVINPFDGSTNYAQKFQGRVTVTRDTSTSTVFLDLSSLRPEDTAVYYCARDSMIGYVLFDYWGQGTLVTVSS

>  <reported endpoint>
EC50

>  <unit label>
µg/mL

>  <reported result>
0.113

$$$$
>  <binder>
49 (antibody, V domains shown) VH: QVQLVESGAEVKKPGASVKVSCKASGYTFTRYYLHWVRQAPGQGLEWMGVINPYGGATNYAQKFQGRVTLTRDTSTSTVYMELNSLRSEDTAVYFCARDAMEGNSYFDHWGPGTLVTVSS

>  <reported endpoint>
EC50

>  <unit label>
µg/mL

>  <reported result>
0.124

$$$$
>  <binder>
33 (antibody, V domains shown) VH: QVQLVQSGAEVKKPGASVRVSCKASGYPFINYYIQWVRQAPGQGLEWMGVINPFDGSTNYAQKFQDRVTVTRDTSTSTVFMDLSSLRSEDTAVYYCARDNMIGYVLLDYWGQGTLVTVSS

>  <reported endpoint>
EC50

>  <unit label>
µg/mL

>  <reported result>
0.079

$$$$
>  <binder>
53 (antibody, V domains shown) VH: QVQLVQSGAEVKKPGASMTVSCKTSGYTFISYYIHWLRQAPGQGLEWLGVINPFGGATNYAQKFQGRVTMTRDTSTITVYMELSSLRSEDTAVYYCARDAMGGDSHFDFWGQGTLVTVSS

>  <reported endpoint>
EC50

>  <unit label>
µg/mL

>  <reported result>
0.122

$$$$
>  <binder>
17 (antibody, V domains shown) VH: QVQLVQSGAEVKKPGASVRVSCKASGYPFINYYIQWVRQAPGQGLEWMGVVNPYDGSTNYAQKFQGRVSITRDASTSTVFMELNSLRSEDTAVYYCARDSMLGHVIFDFWGQGTLVTVSS

>  <reported endpoint>
EC50

>  <unit label>
µg/mL

>  <reported result>
0.104

$$$$
>  <binder>
122 (antibody, V domains shown) VH: EVQLLESGAEVKKPGASVKVSCKASGYTFNRYYIHWVRQAPGQGLEWMGVINPYDGSTDYAQKFRDRITMTRDTSTNTVYMDLSSLRSEDTAVYFCARDAMEGDSYFDNWGRGTLVTVSS

>  <reported endpoint>
EC50

>  <unit label>
µg/mL

>  <reported result>
0.121

$$$$
>  <binder>
142 (antibody, V domains shown) VH: QVQLVQSGAEVKKPGASVMLSCKASGYIFTSYYIQWVRQAPGQGLEWMGVVNPYDGSTNYAQKFQGRVSITRDTSTSTVFMELNSLRSEDTAVYYCARDSMLGHVIFDFWGQGTLVTVSS

>  <reported endpoint>
EC50

>  <unit label>
µg/mL

>  <reported result>
0.108

$$$$
